Hello, the source for this data is patent US11116757B2, in case you need it.

molecular target: DCN1-UBC12 interaction (Homo sapiens (Human), UniProt Q96GG9); experiment: biochemical; type: binding; settings: read-out: TR-FRET IC50
Sequence (Q96GG9 60-248 limits assumed): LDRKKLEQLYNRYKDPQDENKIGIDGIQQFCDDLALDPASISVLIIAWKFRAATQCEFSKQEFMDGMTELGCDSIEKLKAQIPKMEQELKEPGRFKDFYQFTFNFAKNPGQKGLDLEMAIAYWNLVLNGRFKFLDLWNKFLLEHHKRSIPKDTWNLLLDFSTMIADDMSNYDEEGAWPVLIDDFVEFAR
pIC50: −log10 of the molar value.
# reported pIC50; entries follow

Example cases with answers are listed next.
> print(dat)
                                   compound  property.name  recorded.measurement
1  Cc1ccc(C(=O)N2CCC(c3nc4ccccc4s3)CC2)cc1C [D17]          pIC50                < 4.27
2  CCCC(C)N1CCC(N(Cc2ccccc2)C(=O)Nc2ccc(Oc3ccncc3)cc2)CC1 (stereo not drawn) [A69]          pIC50                  6.25
3  CCC(C)CN1CCC(N(Cc2ccccc2)C(=O)Nc2cc(F)cc(C(F)(F)F)c2)CC1 (stereo not drawn) [A121]          pIC50                  6.00
4  O=C(Nc1cc(F)cc(C(F)(F)F)c1)N(Cc1ccccc1)C1CCN(Cc2cccc(N3CCCC3)c2)CC1 [A202]          pIC50                < 4.71
5  CCCC(C)N1CCC(N(Cc2ccccc2)C(=O)Nc2cccc(N3CCOCC3)c2)CC1 (stereo not drawn) [A297]          pIC50                < 4.08

Asked: Enter reported pIC50 observed with DCN1-UBC12 interaction (Homo sapiens (Human), UniProt Q96GG9) for C=CS(=O)(=O)NCCCN(C(=O)Nc1cccc(C(F)(F)F)c1)C1CCN(C(C)CCC)CC1 (stereo not drawn) [A220]
Given back: < 4.61

Asked: Enter reported pIC50 observed with DCN1-UBC12 interaction (Homo sapiens (Human), UniProt Q96GG9) for O=C(c1ccc(I)cc1)N1CCCC(c2nc3ccccc3s2)C1 (stereo not drawn) [D31]
Given back: < 4.17

Asked: Enter reported pIC50 observed with DCN1-UBC12 interaction (Homo sapiens (Human), UniProt Q96GG9) for N#Cc1cccc(CN2CCC(N(Cc3ccccc3)C(=O)Nc3cc(F)cc(C(F)(F)F)c3)CC2)c1 [A230]
Given back: < 4.54

Asked: Enter reported pIC50 observed with DCN1-UBC12 interaction (Homo sapiens (Human), UniProt Q96GG9) for CN(C)c1ccc(CN2CCC(N(Cc3ccccc3)C(=O)Nc3cc(F)cc(C(F)(F)F)c3)CC2)cc1 [A209]
Given back: < 4.67

====

experiment: in vivo; details: male, Plasma Concentration (μM), 50 mg/kg, Day 3
PROPERTY NAME: concentration at 3 day (µM)
Write the number in µM without appending the unit.

Asked: Return reported concentration at 3 day; argument: CCCCN1CCC(N(Cc2ccccc2)C(=O)Nc2ccc(Cl)c(Cl)c2)CC1 [A7]
Given back: 2.7

====

test: in vivo; details: male, Testis Concentration, Repeat Dose (0 and 7.5 hr), time […]
PROPERTY NAME: concentration at […] (µM)
Write the number in µM without appending the unit.

Asked: Return reported concentration at […]; argument: CCCCN1CCC(N(Cc2ccccc2)C(=O)Nc2ccc(Cl)c(Cl)c2)CC1
Given back: 16.7

====

target: DCN1-UBC12 interaction (Homo sapiens (Human), UniProt Q96GG9); assay: biochemical; assay type: binding; details: read-out: TR-FRET IC50
pIC50: −log10 of the molar value.
# reported pIC50; entries follow

> print(dat)
                                   molecule  property.name  recorded.measurement
1  CCN1CCC(N(Cc2ccc(F)cc2)C(=O)Nc2ccccc2Cl)CC1 [B97]          pIC50                < 4.17
2  CCCN1CCC(N(CC(C)C)C(=O)Nc2cccc(C(F)(F)F)c2)CC1 [A146]          pIC50                  5.32
3  CCCCN1CCC(N(Cc2ccccc2)C(=O)Nc2cccc(C)c2)CC1 [A95]          pIC50                  5.88
4  CCCC(C)N1CCC(N(Cc2ccccc2)C(=O)NCc2ccc(N)cc2)CC1 (stereo not drawn) [A233]          pIC50                < 4.40
5  O=C(Nc1cc(C(F)(F)F)ccc1Cl)NC1CCN(Cc2ccccc2)CC1 [B101]          pIC50                < 4.16

Asked: Return reported pIC50; argument: CCCC(C)N1CCC(N(Cc2ccccc2)C(=O)Nc2ccc(Cl)cc2C(=O)OC)CC1 (stereo not drawn) [A266]
Given back: < 4.18

Asked: Return reported pIC50; argument: CCCC(C)N1CCC(N(Cc2ccccc2)C(=O)Nc2ccc(NC(C)=O)cc2)CC1 (stereo not drawn) [A291]
Given back: < 4.11

Asked: Return reported pIC50; argument: CCCC(C)N1CCC(N(Cc2ccccc2)C(=O)Nc2nc3c(OC)cccc3s2)CC1 (stereo not drawn) [A301]
Given back: < 4.06

Asked: Return reported pIC50; argument: FC(F)(F)c1ccnc(NC2CCN(Cc3ccccc3)CC2)n1 [B124]
Given back: < 4.04
